Sourced from patent US20210253718A1

Give median fluorescence for every item shown.
Target: FZD7 cysteine-rich domain (CRD), MYC-tagged and GPI-anchored on CHO cells (human, UniProt O75084 45-169)
Test: flow cytometry, CHO-CRD cells;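 further: flow cytometry of Fab binding to CHO cells overexpressing a Frizzled CRD, with binding defined as median fluorescence over twice that of CHO cells lacking any Frizzled CRD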
When you answer, write just the number.

Fill in median fluorescence for record Fab-2933 (Fab, V domains shown, Fab; also called Fv-2933) VH: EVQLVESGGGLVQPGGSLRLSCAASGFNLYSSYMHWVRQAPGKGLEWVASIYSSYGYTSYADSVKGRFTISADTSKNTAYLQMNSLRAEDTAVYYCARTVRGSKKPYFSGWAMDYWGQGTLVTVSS VL: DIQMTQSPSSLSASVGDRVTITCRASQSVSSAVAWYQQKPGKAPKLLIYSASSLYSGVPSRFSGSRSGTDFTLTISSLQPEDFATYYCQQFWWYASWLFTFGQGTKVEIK
8.74

Fill in median fluorescence for record Fab-2922 (Fab, V domains shown, Fab; also called Fv-2922) VH: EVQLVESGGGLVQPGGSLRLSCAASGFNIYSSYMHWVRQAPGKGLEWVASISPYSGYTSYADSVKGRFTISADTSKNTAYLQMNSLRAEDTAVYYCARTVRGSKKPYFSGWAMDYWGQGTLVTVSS VL: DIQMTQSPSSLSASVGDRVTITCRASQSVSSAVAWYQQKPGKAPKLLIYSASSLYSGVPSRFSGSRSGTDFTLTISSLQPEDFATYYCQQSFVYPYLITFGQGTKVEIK
2.62

Fill in median fluorescence for record Fab-2928 (Fab, V domains shown, Fab; also called Fv-2928) VH: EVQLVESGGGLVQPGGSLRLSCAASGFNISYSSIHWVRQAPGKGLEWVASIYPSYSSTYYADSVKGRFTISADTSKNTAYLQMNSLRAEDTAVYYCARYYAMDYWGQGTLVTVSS VL: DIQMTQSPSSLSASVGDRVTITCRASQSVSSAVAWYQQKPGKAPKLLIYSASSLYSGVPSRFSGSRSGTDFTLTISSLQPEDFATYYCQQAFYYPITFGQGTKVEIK
5.94

Fill in median fluorescence for record Fab-2909 (Fab, V domains shown, Fab; also called Fv-2909) VH: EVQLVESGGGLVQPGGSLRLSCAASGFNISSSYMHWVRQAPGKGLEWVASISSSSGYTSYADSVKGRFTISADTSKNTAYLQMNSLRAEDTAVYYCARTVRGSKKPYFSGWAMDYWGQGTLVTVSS VL: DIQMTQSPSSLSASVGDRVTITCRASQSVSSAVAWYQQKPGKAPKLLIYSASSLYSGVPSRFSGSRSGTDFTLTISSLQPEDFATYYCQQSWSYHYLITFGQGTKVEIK
4.57

Fill in median fluorescence for record Fab-2914 (Fab, V domains shown, Fab; also called Fv-2914) VH: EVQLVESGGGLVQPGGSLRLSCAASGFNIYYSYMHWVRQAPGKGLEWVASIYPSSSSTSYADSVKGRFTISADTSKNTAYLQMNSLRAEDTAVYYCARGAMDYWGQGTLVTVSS VL: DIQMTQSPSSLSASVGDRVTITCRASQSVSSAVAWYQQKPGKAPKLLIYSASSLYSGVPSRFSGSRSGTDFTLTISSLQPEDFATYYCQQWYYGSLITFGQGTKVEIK
18.4
